target: T1, c-erbB-2 ECD with a Ser-Gly-His6 C-terminal fusion (UniProt P04626 23-652); experiment: SPR BIAcore
T1 construct: extracellular domain; Expressed from CHO cells, IMAC purified; coupled to a CM5 chip, coated on plates, or biotinylated with NHS-LC-biotin; also called c-erbB-2 extracellular domain; biotinylated c-erbB-2 ECD
Property name: pKd
Notebook: values listed as pKd are -log10 of the concentration (mol/L).

The following binders have reported results that may help.
C6ML3-3 (scFv) scFv: QVQLLQSGAELKKPGESLKISCKGSGYSFTSYWIAWVRQMPGKGLEYMGLIYPGDSDTKYSPSFQGQVTISVDKSVSTAYLQWSSLKPSDSAVYFCARHDVGYCSSSNCAKWPEYFQHWGQGTLVTVSSGGGGSGGGGSGGGGSQSVLTQPPSVSAAPGQKVTISCSGSSSNIGNNYVSWYQQLPGTAPKLLIYGHTNRPAGVPDRFSGSKSGTSASLAISGFRSEDEADYYCATWDYALSGWVFGGGTKLTVLG = 8.37
C6ML3-11 (scFv) scFv: QVQLLQSGAELKKPGESLKISCKGSGYSFTSYWIAWVRQMPGKGLEYMGLIYPGDSDTKYSPSFQGQVTISVDKSVSTAYLQWSSLKPSDSAVYFCARHDVGYCSSSNCAKWPEYFQHWGQGTLVTVSSGGGGSGGGGSGGGGSQSVLTQPPSVSAAPGQKVTISCSGSSSNIGNNYVSWYQQLPGTAPKLLIYGHTNRPAGVPDRFSGSKSGTSASLAISGFRSEDEADYYCAAWDYALWGWVFGGGTKLTVLG = 8.44
C6ML3-4 (scFv) scFv: QVQLLQSGAELKKPGESLKISCKGSGYSFTSYWIAWVRQMPGKGLEYMGLIYPGDSDTKYSPSFQGQVTISVDKSVSTAYLQWSSLKPSDSAVYFCARHDVGYCSSSNCAKWPEYFQHWGQGTLVTVSSGGGGSGGGGSGGGGSQSVLTQPPSVSAAPGQKVTISCSGSSSNIGNNYVSWYQQLPGTAPKLLIYGHTNRPAGVPDRFSGSKSGTSASLAISGFRSEDEADYYCASWEYSLWGWVFGGGTKLTVLG = 8.46
C6ML3-7 (scFv) scFv: QVQLLQSGAELKKPGESLKISCKGSGYSFTSYWIAWVRQMPGKGLEYMGLIYPGDSDTKYSPSFQGQVTISVDKSVSTAYLQWSSLKPSDSAVYFCARHDVGYCSSSNCAKWPEYFQHWGQGTLVTVSSGGGGSGGGGSGGGGSQSVLTQPPSVSAAPGQKVTISCSGSSSNIGNNYVSWYQQLPGTAPKLLIYGHTNRPAGVPDRFSGSKSGTSASLAISGFRSEDEADYYCAAWDYAVSGWVFGGGTKLTVLG = 8.59

Then this binder:
Lookup: Look up pKd of C6ML3-6 (scFv) scFv: QVQLLQSGAELKKPGESLKISCKGSGYSFTSYWIAWVRQMPGKGLEYMGLIYPGDSDTKYSPSFQGQVTISVDKSVSTAYLQWSSLKPSDSAVYFCARHDVGYCSSSNCAKWPEYFQHWGQGTLVTVSSGGGGSGGGGSGGGGSQSVLTQPPSVSAAPGQKVTISCSGSSSNIGNNYVSWYQQLPGTAPKLLIYGHTNRPAGVPDRFSGSKSGTSASLAISGFRSEDEADYYCASWDYSLSGWVFGGGTKLTVLG and report it.
Found: 8.49
